# Test system: cancer cell lines
# Assay method text: Cancer cell proliferation activity of representative nucleosides, CellTiterGlo 72 h (Example 7, Tables 8 and 9)
# Assay type: cell-based
# Condition: Homo sapiens, PLC-PRF-5, 72 h, PLCPRF5, liver, 72 h
# Protocol: Dose response relationships on cell proliferation was assessed for representative nucleosides on cancer cell lines. […] After incubation for 72 h at 37° C. at 5% or 10% CO2 dependent on the medium, cell plates were equilibrated to room temperature for one hour, CellTiterGlo reagent (Promega) was added and luminescence was measured approximately an hour later using a luminometer. […]
pIC50: −log10 of the molar value.
Readout name: pIC50

Entry C#C[C@]1(CO)O[C@@H](n2cc(F)c(=O)[nH]c2=O)C[C@@H]1O : pIC50 on cancer cell lines = < 4.30

Entry CC[C@]1(CO)O[C@@H](n2ccc(N)nc2=O)C[C@@H]1O : pIC50 on cancer cell lines = < 4.30

Entry C[C@]1(CO)O[C@@H](n2ccc(N)nc2=O)C[C@@H]1O : pIC50 on cancer cell lines = 5.67

Entry C#C[C@]1(CO)O[C@@H](n2cc(F)c(N)nc2=O)C[C@@H]1O : pIC50 on cancer cell lines = 5.49

Entry C#C[C@]1(CO)O[C@@H](n2ccc(N)nc2=O)C[C@@H]1O : pIC50 on cancer cell lines = < 4.30

Entry CC[C@]1(CO)O[C@@H](n2cnc3c(N)nc(N)nc32)C[C@@H]1O : pIC50 on cancer cell lines = < 4.30

Entry N#C[C@]1(CO)O[C@@H](n2ccc(N)nc2=O)C[C@@H]1O : pIC50 on cancer cell lines = < 4.30

Entry C#C[C@]1(CO)O[C@@H](n2cnc3c(=O)[nH]c(N)nc32)C[C@@H]1O : pIC50 on cancer cell lines = 5.68

* * *

# System: HT1080
# Assay method text: Cell proliferation Ex.3
# Assay type: cell-based
# Condition: Homo sapiens, HT-1080; HT1080, 120 h
pIC50: −log10 of the molar value.
Readout name: pIC50

Reported pIC50 for C#C[C@]1(CO)O[C@@H](n2cc(F)c(N)nc2=O)C[C@@H]1O was < 5.00

* * *

# Test system: CACO2
# Assay method text: Cell proliferation Ex.3
# Format: cell-based
# Condition: Homo sapiens, Caco-2; CACO2, 120 h
Readout name: IC50

Reported IC50 for C#C[C@]1(CO)O[C@@H](n2cc(F)c(N)nc2=O)C[C@@H]1O [compound 9] was > 10 µM

* * *

# System: PLCPRF5
# Assay method text: Cell proliferation Ex.3
# Assay type: cell-based
# Condition: Homo sapiens, PLC-PRF-5; PLCPRF5, 120 h
Readout name: IC50

Reported IC50 for C#C[C@]1(CO)O[C@@H](n2cc(F)c(N)nc2=O)C[C@@H]1O [compound 9] was > 10 µM

* * *

# System: H2228
# Assay method text: Cell proliferation CellTiterGlo Ex.2
# Type: cell-based
# Condition: Homo sapiens, NCI-H2228; H2228 (Lung), 72 h
pIC50: −log10 of the molar value.
Readout name: pIC50

Entry C#C[C@]1(CO)O[C@@H](n2cnc3c(=O)[nH]c(N)nc32)C[C@@H]1O [compound 13] : pIC50 on H2228 = < 5.00

* * *

# Test system: Caki-2
# Assay method text: Cell proliferation CellTiterGlo Ex.2
# Format: cell-based
# Condition: Homo sapiens; Caki-2 (Kidney), 72 h
Readout name: IC50

Reported IC50 for C#C[C@]1(CO)O[C@@H](n2cnc3c(=O)[nH]c(N)nc32)C[C@@H]1O was > 10 µM

* * *

# System: LOVO
# Assay method text: Cell proliferation Ex.3
# Type: cell-based
# Condition: Homo sapiens, 168 h
Readout name: IC50 (nM)
Write down the numeric answer in nM and omit the unit.

Entry C#C[C@]1(CO)O[C@@H](n2cc(F)c(N)nc2=O)C[C@@H]1O [compound 9] : IC50 on LOVO = 2060

* * *

# Tested on: T98G
# Assay method text: Cell proliferation CellTiterGlo Ex.2
# Type: cell-based
# Condition: Homo sapiens; T98G (Brain), 72 h
Readout name: IC50

Reported IC50 for C#C[C@]1(CO)O[C@@H](n2cnc3c(=O)[nH]c(N)nc32)C[C@@H]1O [compound 13] was > 10 µM

* * *

# Test system: cancer cell lines
# Assay method text: Cancer cell proliferation activity of representative nucleosides, CellTiterGlo 72 h (Example 7, Tables 8 and 9)
# Assay type: cell-based
# Condition: Homo sapiens, BT-20, 72 h, BT20, breast, 72 h
pIC50: −log10 of the molar value.
Please provide measured pIC50 for the entries that follow.

Entry C#C[C@]1(CO)O[C@@H](n2cc(F)c(N)nc2=O)C[C@@H]1O : pIC50 on cancer cell lines = < 4.30

Entry C#C[C@]1(CO)O[C@@H](n2cnc3c(=O)[nH]c(N)nc32)C[C@@H]1O : pIC50 on cancer cell lines = < 4.30

Entry C[C@]1(CO)O[C@@H](n2ccc(N)nc2=O)C[C@@H]1O : pIC50 on cancer cell lines = 6.17

Entry N#C[C@]1(CO)O[C@@H](n2ccc(N)nc2=O)C[C@@H]1O : pIC50 on cancer cell lines = 5.83

Entry CC[C@]1(CO)O[C@@H](n2cnc3c(N)nc(N)nc32)C[C@@H]1O : pIC50 on cancer cell lines = < 4.30

Entry C#C[C@]1(CO)O[C@@H](n2ccc(N)nc2=O)C[C@@H]1O : pIC50 on cancer cell lines = < 4.30

Entry C#C[C@]1(CO)O[C@@H](n2cc(F)c(=O)[nH]c2=O)C[C@@H]1O : pIC50 on cancer cell lines = < 4.30

Entry CC[C@]1(CO)O[C@@H](n2ccc(N)nc2=O)C[C@@H]1O : pIC50 on cancer cell lines = < 4.30

* * *

Please provide measured IC50 for the entries that follow.
# Tested on: cancer cell lines
# Assay method text: Cancer cell proliferation activity of representative nucleosides, CellTiterGlo 72 h (Example 7, Tables 8 and 9)
# Type: cell-based
# Condition: Homo sapiens, MV4-11, 72 h, MV4-11, hematological, 72 h
Write down the numeric answer in µM and omit the unit.

Entry C#C[C@]1(CO)O[C@@H](n2cnc3c(=O)[nH]c(N)nc32)C[C@@H]1O [compound 13] : IC50 on cancer cell lines = 1.02

Entry C#C[C@]1(CO)O[C@@H](n2ccc(N)nc2=O)C[C@@H]1O [compound 7] : IC50 on cancer cell lines = 4.32

Entry CC[C@]1(CO)O[C@@H](n2ccc(N)nc2=O)C[C@@H]1O [compound 21] : IC50 on cancer cell lines = 4.39

Entry C#C[C@]1(CO)O[C@@H](n2cc(F)c(N)nc2=O)C[C@@H]1O [compound 9] : IC50 on cancer cell lines = 0.39

Entry C#C[C@]1(CO)O[C@@H](n2cc(F)c(=O)[nH]c2=O)C[C@@H]1O [compound 15] : IC50 on cancer cell lines = 1.72

* * *

# Tested on: cancer cell lines
# Assay method text: Cancer cell proliferation activity of representative nucleosides, CellTiterGlo 72 h (Example 7, Tables 8 and 9)
# Format: cell-based
# Condition: Homo sapiens, MIA PaCa-2, 72 h, MIAPACA2, 72 h (Table 9)
pIC50: −log10 of the molar value.
Readout name: pIC50

Entry Nc1nc(=O)n([C@@H]2C=C[C@H](CO)O2)cc1F [Elvucitabine, reference compound] : pIC50 on cancer cell lines = < 4.30

Entry C#C[C@]1(CO)O[C@@H](n2cnc3c(N)nc(F)nc32)C[C@@H]1O [Islatravir (EFdA), Islatravir, reference compound] : pIC50 on cancer cell lines = < 4.30

Entry Cc1cn([C@H]2C[C@H](O)[C@@](C#N)(CO)O2)c(=O)[nH]c1=O : pIC50 on cancer cell lines = < 4.30

Entry Nc1ccn([C@H]2C[C@H](O)[C@](CO)(CF)O2)c(=O)n1 : pIC50 on cancer cell lines = 5.94

* * *

# System: MDAMB436
# Assay method text: Cell proliferation Ex.3
# Type: cell-based
# Condition: Homo sapiens, MDA-MB-436; MDAMB436, 72 h
Readout name: IC50

Reported IC50 for C#C[C@]1(CO)O[C@@H](n2cc(F)c(N)nc2=O)C[C@@H]1O was > 10 µM

* * *

# Test system: MG63
# Assay method text: Cell proliferation Ex.3
# Assay type: cell-based
# Condition: Homo sapiens, MG-63; MG63, 168 h
Readout name: IC50

Reported IC50 for C#C[C@]1(CO)O[C@@H](n2cc(F)c(N)nc2=O)C[C@@H]1O was > 10 µM

* * *

# Tested on: KASUMI
# Assay method text: Cell proliferation Ex.3
# Format: cell-based
# Condition: 72 h
Readout name: IC50

Reported IC50 for C#C[C@]1(CO)O[C@@H](n2cc(F)c(N)nc2=O)C[C@@H]1O was > 10 µM

* * *

# Test system: HL-60
# Assay method text: Cell proliferation CellTiterGlo Ex.2
# Assay type: cell-based
# Condition: Homo sapiens; HL-60 (Blood), 72 h
Readout name: IC50 (nM)
Write down the numeric answer in nM and omit the unit.

Entry C#C[C@]1(CO)O[C@@H](n2cnc3c(=O)[nH]c(N)nc32)C[C@@H]1O [compound 13] : IC50 on HL-60 = 1130
